Test system: Malme-3M
Experiment: NCI tumour cell line growth inhibition, 48 h
Activity calls are given as the source filed them. Cut-off read from the data, not from the text of the source: active = GI50 up to about 1.1 µM and inactive = higher. Peptide text beside a SMILES is read from it. * marks the point of attachment. X27 = Clc1c(Cl)c(Cl)c(O*)c(Cl)c1Cl; Boc = CC(C)(C)OC(=O)*; OBn = c1ccc(CO*)cc1; Bn = c1ccc(C*)cc1
Exercise: for every item that follows, state its recorded GI50.

Please state GI50 for every molecule in the list that follows.
1. COC1(OC)CC(CO)(CNc2nc(N)nc(Cl)c2C=O)C1
2. N#Cc1c(-c2ccc(Cl)cc2)cc(-c2ccc(Nc3ccnc4cc(C(F)(F)F)ccc34)cc2)nc1N
3. CC(C)CC(NC(=O)C(CCC(=O)OCc1ccccc1)NC(=O)OC(C)(C)C)C(=O)NC(COCc1ccccc1)C(=O)NC(Cc1ccccc1)C(=O)Oc1c(Cl)c(Cl)c(Cl)c(Cl)c1Cl (centres undefined) (Boc-E(OBn)LS(Bn)F-X27; configuration not given here)

## Output
1: 81.7 µM (inactive); 2: 63.2 µM (inactive); 3: 33.1 µM (inactive)
